System: MMP-13
Experiment: MMP-13 production inhibition test
Assay type: cell-based
Conditions: 30 μmol/L; human cartilage derived cell line SW1353, IL-1β 10 ng/mL, 16 hours after stimulation, MMP-13 in culture supernatant by ELISA; read-out: Inhibition rate (%) at 30 μmol/L
This listing pairs compounds with measured inhibition at 30 µM.
The reply should consist of the numeric value with the unit placed after it.

Known results for compounds:
[
  {
    "structure.as.smiles": "O=C(O)c1ccc(-c2ccccc2)cc1Nc1cccc2cccnc12",
    "observed.measurement": "97%"
  },
  {
    "structure.as.smiles": "O=C(O)c1ccc(N2CCc3ccccc32)cc1Nc1ccc(F)cc1",
    "observed.measurement": "97%"
  },
  {
    "structure.as.smiles": "O=C(O)c1ccc(-c2ccccc2)cc1Nc1ccc(F)cc1",
    "observed.measurement": "92%"
  },
  {
    "structure.as.smiles": "O=C(O)c1ccc(-c2cccc(Cl)c2)cc1Nc1cccc(O)c1",
    "observed.measurement": "97%"
  }
]

Endpoint output: inhibition at 30 µM of O=C(O)c1ccc(Oc2ccccc2)cc1Nc1ccccc1 . Value?
93%

I am curious: what inhibition at 30 µM value has been reported for O=C(O)c1ccc(CCc2ccccc2)cc1Nc1ccc(F)cc1 ?
97%

Looking for the measured inhibition at 30 µM of COc1cccc(CCc2ccc(C(=O)O)c(Nc3ccc(F)cc3)c2)c1 , can you help?
92%

Quick check: inhibition at 30 µM of O=C(O)c1ccc(CCc2ccc(OC(F)(F)F)cc2)cc1Nc1ccc(F)cc1 ?
96%

What measured inhibition at 30 µM goes with O=C(O)c1ccc(CCc2ccccc2)cc1Nc1ccc(-n2cccn2)cc1 ?
96%

====

System: MMP-13
Assay: MMP-13 production inhibition test
Type: cell-based
Conditions: 30 μmol/L; human cartilage derived cell line SW1353, IL-1β 10 ng/mL, 16 hours after stimulation, MMP-13 in culture supernatant by ELISA; read-out: Inhibition rate (%) at 30 μmol/L
metric.name: inhibition at 30 µM

Recorded inhibition at 30 µM, per entry:
[
  {
    "structure.as.smiles": "O=C(O)c1ccc(NS(=O)(=O)c2ccccc2)cc1Nc1ccc(F)cc1",
    "observed.measurement": "53%"
  },
  {
    "structure.as.smiles": "O=C(O)c1ccc(-c2ccccc2)cc1NCC=Cc1ccccc1",
    "observed.measurement": "91%"
  },
  {
    "structure.as.smiles": "O=C(O)c1ccc(-c2ccccc2)cc1Nc1ccc(OC(F)(F)F)cc1",
    "observed.measurement": "97%"
  }
]

Tell me reported inhibition at 30 µM for O=C(O)c1ccc(CCc2ccc3c(c2)OCCO3)cc1Nc1cccc(O)c1 , tested with MMP-13.
87%

What reported inhibition at 30 µM corresponds to O=C(O)c1ccc(CCc2ccccc2)cc1Nc1ccc(C(F)(F)F)cc1 on MMP-13?
97%

Item COc1ccc(-c2ccc(C(=O)O)c(Nc3ccc(F)cc3)c2)cc1 with MMP-13 - inhibition at 30 µM?
93%

Notebook: pull reported inhibition at 30 µM for MMP-13, entry O=C(O)c1ccc(Oc2ccccc2)cc1NCc1ccccc1
77%

Please provide the recorded inhibition at 30 µM for O=C(O)c1ccc(NCCCc2ccccc2)cc1Nc1ccc(F)cc1 , tested on MMP-13.
94%

====

System: MMP-13
Assay: MMP-13 production inhibition test
Assay type: cell-based
Settings: 30 μmol/L; human cartilage derived cell line SW1353, IL-1β 10 ng/mL, 16 hours after stimulation, MMP-13 in culture supernatant by ELISA; read-out: Inhibition rate (%) at 30 μmol/L
Counter-ions that a name gives are not always drawn.
Catalogue of inhibition at 30 µM readings, one per entry.
Respond numerically; units are % and should not be typed.

Examples with answers:
[
  {
    "compound": "O=C(O)c1ccc(CCc2ccccc2)cc1Nc1cccc2cnccc12 [Example 360, trifluoroacetate]",
    "units.of.measure": "%",
    "inhibition at 30 µM": 97
  },
  {
    "compound": "O=C(O)c1ccc(N2CCc3ccccc32)cc1Nc1cccc(O)c1 [Example 286]",
    "units.of.measure": "%",
    "inhibition at 30 µM": 96
  },
  {
    "compound": "COc1ccccc1-c1ccc(C(=O)O)c(Nc2ccc(F)cc2)c1 [Example 3]",
    "units.of.measure": "%",
    "inhibition at 30 µM": 53
  },
  {
    "compound": "O=C(O)c1ccc(NCc2ccccc2)cc1Nc1ccc(F)cc1 [Example 67]",
    "units.of.measure": "%",
    "inhibition at 30 µM": 67
  },
  {
    "compound": "O=C(O)c1ccc(-c2ccc3c(c2)OCO3)cc1Nc1ccc(F)cc1 [Example 7]",
    "units.of.measure": "%",
    "inhibition at 30 µM": 95
  },
  {
    "compound": "COc1cccc(CCc2ccc(C(=O)O)c(Nc3ccccc3C)c2)c1 [Example 290]",
    "units.of.measure": "%",
    "inhibition at 30 µM": 98
  },
  {
    "compound": "O=C(O)c1ccc(CCc2ccccc2)cc1Nc1cccc(Cl)c1 [Example 200]",
    "units.of.measure": "%",
    "inhibition at 30 µM": 97
  },
  {
    "compound": "CN(C)c1ccccc1Nc1cc(-c2ccccc2)ccc1C(=O)O [Example 372]",
    "units.of.measure": "%",
    "inhibition at 30 µM": 97
  },
  {
    "compound": "CC(=O)Nc1cccc(CCc2ccc(C(=O)O)c(Nc3ccc(F)cc3)c2)c1 [Example 262]",
    "units.of.measure": "%",
    "inhibition at 30 µM": 80
  },
  {
    "compound": "CC(=O)c1ccc(-c2ccc(C(=O)O)c(Nc3ccc(F)cc3)c2)cc1 [Example 15]",
    "units.of.measure": "%",
    "inhibition at 30 µM": 91
  }
]

I am curious: what inhibition at 30 µM value has been reported for O=C(O)c1ccc(Nc2ccccc2)cc1Nc1ccc(F)cc1 [Example 63] ?
67

Consider the compound O=C(O)c1ccc(-c2ccccc2OC(F)(F)F)cc1Nc1ccc(F)cc1 [Example 220] and give its measured inhibition at 30 µM.
98

Sample Cc1ccc(Nc2cc(CCc3ccccc3)ccc2C(=O)O)c(C)c1 [Example 172] — what was its inhibition at 30 µM?
97

I am curious: what inhibition at 30 µM value has been reported for O=C(O)c1ccc(-n2cnc3ccccc32)cc1Nc1ccc(F)cc1 [Example 248, trifluoroacetate] ?
84

Reported inhibition at 30 µM, compound O=C(O)c1ccc(-c2cccc3[nH]ccc23)cc1Nc1ccc(F)cc1 [Example 234] : ____
97

Look at this compound and give its reported inhibition at 30 µM. O=C(O)c1ccc(/C=C/c2cccc(O)c2)cc1Nc1ccc(F)cc1 [Example 126]
94

Please report the recorded inhibition at 30 µM for O=C(O)c1ccc(CCc2ccccc2)cc1Nc1ccc2[nH]ccc2c1 [Example 331] .
97

Fill blank: measured inhibition at 30 µM of the compound O=C(O)c1ccc(/C=C/c2ccc(F)cc2)cc1Nc1ccc(F)cc1 [Example 132] is ____.
95

Given O=C(O)c1ccc(Oc2ccccc2)cc1NCc1ccc(F)cc1 [Example 49] , state its recorded inhibition at 30 µM.
85

====

# inhibition at 30 µM annotations
Test system: MMP-13
Assay: MMP-13 production inhibition test
Type: cell-based
Conditions: 30 μmol/L; human cartilage derived cell line SW1353, IL-1β 10 ng/mL, 16 hours after stimulation, MMP-13 in culture supernatant by ELISA; read-out: Inhibition rate (%) at 30 μmol/L
# unit: % | format: bare number

[
  {
    "structure.as.smiles": "O=C(O)c1ccc(Oc2ccccc2)cc1Nc1ccc2c(c1)OCO2",
    "measured.on": "MMP-13",
    "inhibition at 30 µM, %": 93
  }
]

So what does the record say about inhibition at 30 µM for Cc1ccc(-c2ccc(C(=O)O)c(Nc3ccc(F)cc3)c2)cc1C ?
98

Need inhibition at 30 µM, item COc1ccc(Nc2cc(Oc3ccccc3)ccc2C(=O)O)c(OC)c1
73

Which inhibition at 30 µM reading was recorded for the compound O=C(O)c1ccc(CCc2ccccc2)cc1Nc1ccccc1C(F)(F)F ?
97

# get_value(readout='inhibition at 30 µM', item= O=C(O)c1ccc(CCc2ccccc2)cc1Nc1ccccc1OC(F)(F)F )
97

Any idea what its inhibition at 30 µM is? The compound is CS(=O)(=O)c1ccc(-c2ccc(C(=O)O)c(Nc3ccc(F)cc3)c2)cc1
62

Consider the compound COc1ccccc1Nc1cc(CCc2ccccc2)ccc1C(=O)O and give its measured inhibition at 30 µM.
97

Using the record for Cc1cccc(Nc2cc(CCc3ccccc3)ccc2C(=O)O)c1C , report its inhibition at 30 µM.
97

Which inhibition at 30 µM is reported for this compound? Cc1ccccc1Nc1cc(-c2ccc(NS(C)(=O)=O)cc2)ccc1C(=O)O
83
